The measurements presented in this section are drawn from paper PMC3812159.

endogenous proteases and peptidases found in the S100 lysates: recorded k6, rate constant for peptidase-dependent degradation of mono-ubiquitinated substrate for assorted substances

Would you please look over these solved cases?
Task item: Query k6, rate constant for peptidase-dependent degradation of mono-ubiquitinated substrate on endogenous proteases and peptidases found in the S100 lysates for KKYSSQTSQDSGNYSNK(FAM)KKK [IFNAR1]
Reply: 0.01 (1/min)*10^3

Task item: Query k6, rate constant for peptidase-dependent degradation of mono-ubiquitinated substrate on endogenous proteases and peptidases found in the S100 lysates for K-(PEG)-DVQKADVSSTGQGIDSK(FAM)KKK [SRC3]
Reply: 0.01 (1/min)*10^3

Task item: Query k6, rate constant for peptidase-dependent degradation of mono-ubiquitinated substrate on endogenous proteases and peptidases found in the S100 lysates for KPFLNGGPYHSREQSTDSGLGLGSYK(FAM)KKK [TAZ]
Reply: 1.5 (1/min)*10^3

Task item: Query k6, rate constant for peptidase-dependent degradation of mono-ubiquitinated substrate on endogenous proteases and peptidases found in the S100 lysates for K-(PEG)-KEEKDINNNVKKTK(FAM)KKK [iNOS]
Reply: 1.0 (1/min)*10^3

Task item: Query k6, rate constant for peptidase-dependent degradation of mono-ubiquitinated substrate on endogenous proteases and peptidases found in the S100 lysates for KAWQQQSYLDSGIHSGATTTAPK(FAM)KKK [β-Catenin]
Reply: 0.1 (1/min)*10^3

Note: attention shifts to another entry.
Task item: Query k6, rate constant for peptidase-dependent degradation of mono-ubiquitinated substrate on endogenous proteases and peptidases found in the S100 lysates for KAAEEEEVSLASTPTDVRDVDIK(FAM)KKK [Cyclin D1]
Reply: 0.01 (1/min)*10^3
